Listing of entries alongside the reported Screen.
# targetOrTestSystem: c-Src kinase domain (Homo sapiens, UniProt P12931)
# experimentNotes: pTyr-Var library bacterial peptide display kinase screen (enrichment scores);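 also: log2 fold change in enrichment of variant over reference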
# Format: biochemical
# experimentalContext: sheet "Src"; effect of the variant peptide relative to its reference peptide in the pTyr-Var library screen

These solved cases illustrate the format of a correct answer.
>  <querySequence>
TESALYGCTIL [MAP3K21_Y724_V728I]

>  <val>
0.3601

$$$$
>  <querySequence>
HFPDVYAWEQL [ALX3_Y181_R183W_YF]

>  <val>
2.591

$$$$
>  <querySequence>
PSDLLYIPDIQ [ITGA2B_Y845_L847P]

>  <val>
-2.46

$$$$
>  <querySequence>
FISLIYTNFEV [GSTP1_Y109_A114V_YF]

>  <val>
0.2277

$$$$
>  <querySequence>
FLENFYDLEKD [MMP3_Y42_K45E_YF]

>  <val>
0.2474

$$$$
>  <querySequence>
FADGVYLALEE [DUOX2_Y70_Q71L_YF]

>  <val>
-0.6157

$$$$

# input Please report the recorded Screen for QMVDMYASSFM [AVPR2_Y124_G122D_YF] .
# output 0.5236

# input Query LDFPEYNGVDR [CASQ1_Y43_D44N] next
# output 0.514

# input Query MSRNLYSGDCF [DDR2_Y736_Y740C_YF] next
# output -1.107

###

# Tested on: Fer kinase domain
# experimentNotes: pTyr-Var library bacterial peptide display kinase screen (enrichment scores);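 also: log2 fold change in enrichment of variant over reference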
# Assay type: biochemical, mouse
# experimentalContext: sheet "Fer"; variant peptide relative to its reference peptide, pTyr-Var library screen enrichment
Listing of entries alongside the reported Screen.

These solved cases illustrate the format of a correct answer.
>  <querySequence>
LESILYESSVV [TRPV4_Y91_T89I]

>  <Screen>
-0.3592

$$$$
>  <querySequence>
RKVLVYDKLNV [ROR2_Y624_N620K]

>  <Screen>
-1.726

$$$$
>  <querySequence>
GADAIYDHVNE [UQCR10_Y44_I47V]

>  <Screen>
0.2964

$$$$

# input Please report the recorded Screen for PLDGEYSTLQI [TP53_Y327_F328S] .
# output 1.6

# input Query DNEAIYDICRC [TUBA4A_Y210_R215C] next
# output -0.3932

###

# Tested on: Fer kinase domain
# experimentNotes: pTyr-Var library bacterial peptide display kinase screen (enrichment scores);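 also: log2 fold change in enrichment of variant over reference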
# Format: biochemical, mouse
# experimentalContext: sheet "Fer"; value of the variant peptide against its reference peptide in the pTyr-Var library screen with Fer
outcomeMeasure: Screen
// response body must contain only the number

>  <querySequence>
HGEAFYSEVKA [PAK5_Y182_P187A_YF]

>  <targetOrTestSystem>
Fer kinase domain

>  <Screen>
-0.1663

$$$$
>  <querySequence>
KNKELYSDPFD [PDE10A_Y300_L303P]

>  <targetOrTestSystem>
Fer kinase domain

>  <Screen>
-1.007

$$$$
>  <querySequence>
CKSIHYDLVFL [COL22A1_Y37_V35I]

>  <targetOrTestSystem>
Fer kinase domain

>  <Screen>
-0.07246

$$$$
>  <querySequence>
LTERDYSFVTT [ACTG2_Y199_G198D]

>  <targetOrTestSystem>
Fer kinase domain

>  <Screen>
1.738

$$$$
>  <querySequence>
SDMGQYQCLVF [AXL_Y115_T112M]

>  <targetOrTestSystem>
Fer kinase domain

>  <Screen>
0.2934

$$$$

# input Please report the recorded Screen for EAVSIYQFFGQ [CBLC_Y402_H405Y_YF] .
# output -0.2521

# input Query NEKNIYGVPLM [BMPR2_Y247_R248G] next
# output 2.844

# input Query FDNPIYQKTTE [LDLR_Y828_V827I] next
# output 1.939

# input Query AEDKPYAELWT [MPI_Y46_M51T] next
# output -0.5845

# input Query LIFVSYDDWDF [GRIN2A_Y281_S278F_YF] next
# output -0.259

# input Query ACEVLYNIVFM [NCF2_Y125_A128V] next
# output 0.5953

# input Query FGCGMYSHLQG [LGR4_Y848_D844G_YF] next
# output -1.105

# input Query LENSTYQFICV [CRB1_Y760_R764C_YF] next
# output -1.109

# input Query EGTATYAAAIL [JUP_Y644_V648I] next
# output 0.5368

Cited source: paper PMC10065799
